pKi: −log10 of the molar value.
Entries below carry reported pKi on Carbonic anhydrase 9 (Homo sapiens, UniProt Q16790).
measured_parameter: pKi

1. O=c1[nH]c2ccc([N+](=O)[O-])cc2c(=O)n1O :: 8.34
2. O=C(O)c1ccccc1C(=O)Nc1cc2c(=O)n(O)c(=O)[nH]c2cc1Cl :: 8.09
3. O=C(NCc1ccccc1)Nc1cc2c(=O)n(O)c(=O)[nH]c2cc1Cl :: 8.16

[1] O=c1[nH]c2cc(C(F)(F)F)c([N+](=O)[O-])cc2c(=O)n1O
[2] O=c1[nH]c2ccccc2c(=O)n1O
[3] O=C(NCc1ccccc1)Nc1ccc2[nH]c(=O)n(O)c(=O)c2c1
[4] O=c1[nH]c2ccc(-n3cnnc3)cc2c(=O)n1O
Enquiry: Order the records by pKi, with each subsequent value no larger than the one before. I would appreciate it if you listed the labels in the requested order.
Return: 1, 3, 4, 2
(1: 8.01, 3: 7.57, 4: 7.16, 2: 6.32)

[I] O=c1[nH]c2cc(Cl)cc(Cl)c2c(=O)n1O
[II] O=c1[nH]c2cc(Cl)c(-n3cnnc3)cc2c(=O)n1O
Enquiry: # argmax over pKi for candidates I and II # answer = label of selected item
Return: I
(I: 8.11, II: 7.48)

###

# procedure_text: Antiproliferative activity against human HT-29 cells assessed as cell viability at 300 uM after 48 hrs under normoxic conditions by MTT assay relative to control
# Assay type: cell-based
# experimental_context: read-out: Activity
// viability at 48 h, 300 µM lookup, one value per entry
Give your result in % as a bare value.

// below: answered molecules
1. O=c1[nH]c2cc(Cl)c(Cl)cc2c(=O)n1O :: 9.44
2. O=c1[nH]c2cc(Cl)c([N+](=O)[O-])cc2c(=O)n1O :: 77.6
3. O=c1[nH]c2cc(Cl)cc(Cl)c2c(=O)n1O :: 91
4. CC(=O)Nc1nnc(S(N)(=O)=O)s1 [ACETAZOLAMIDE] :: 101
5. O=C1C=CCN1c1cc2c(=O)n(O)c(=O)[nH]c2cc1Cl :: 106
6. O=c1[nH]c2ccc([N+](=O)[O-])cc2c(=O)n1O :: 95.1
7. O=c1[nH]c2cc(C(F)(F)F)c([N+](=O)[O-])cc2c(=O)n1O :: 45.1

Shift focus to the following entry.
Enquiry: Please give the measured viability at 48 h, 300 µM for this molecule: `O=C(NCc1ccccc1)Nc1ccc2[nH]c(=O)n(O)c(=O)c2c1`
Return: 85.6

###

# target_entity: Carbonic anhydrase 2 (Homo sapiens)
# procedure_text: Inhibition of recombinant human carbonic anhydrase 2 preincubated for 15 mins prior to testing by phenol red based stopped-flow CO2 hydration assay
pKi: −log10 of the molar value.
measured_parameter: pKi

Solved entries:
1) O=c1[nH]c2cc(Cl)c(Cl)cc2c(=O)n1O :: < 5.00
2) O=c1[nH]c2cc(Cl)c(-n3ccnc3)cc2c(=O)n1O :: < 5.00
3) O=c1[nH]c2ccccc2c(=O)n1O :: < 5.00
4) Nc1cc2c(=O)n(O)c(=O)[nH]c2cc1Cl :: < 5.00

Enquiry: Give its pKi value. Item: `O=C(O)c1ccccc1C(=O)Nc1cc2c(=O)n(O)c(=O)[nH]c2cc1Cl`
Return: < 5.00

Enquiry: Name the reported pKi value associated with the compound `O=C(O)COn1c(=O)[nH]c2cc(Cl)c([N+](=O)[O-])cc2c1=O`
Return: < 5.00

Enquiry: Record request: pKi value, item `O=C(NCc1ccccc1)Nc1cc2c(=O)n(O)c(=O)[nH]c2cc1Cl`
Return: < 5.00

Enquiry: Endpoint output: pKi of `O=C(Nc1cc2c(=O)n(O)c(=O)[nH]c2cc1Cl)c1ccccc1` . Value?
Return: < 5.00

Enquiry: Need pKi, item `O=C(Nc1ccccc1)Nc1ccc2[nH]c(=O)n(O)c(=O)c2c1`
Return: < 5.00

Enquiry: # input compound: `O=C(O)CCC(=O)Nc1ccc2[nH]c(=O)n(O)c(=O)c2c1` ; wanted: its pKi
Return: < 5.00

Enquiry: Report pKi for `O=c1[nH]c2cc(Cl)c(-n3cnnc3)cc2c(=O)n1O` please.
Return: < 5.00

Enquiry: Give its pKi value. Item: `O=c1[nH]c2cc(C(F)(F)F)ccc2c(=O)n1O`
Return: < 5.00

Enquiry: Return reported pKi; argument: `O=c1[nH]c2cc(C(F)(F)F)c([N+](=O)[O-])cc2c(=O)n1O`
Return: < 5.00

###

# procedure_text: Antiproliferative activity against human HT-29 cells assessed as cell viability at 30 uM after 48 hrs under normoxic conditions by MTT assay relative to control
# Assay type: cell-based
# experimental_context: read-out: Activity
measured_parameter: viability at 48 h, 30 µM (%)
Your answer should be a plain number; it is taken to be in %.

Use the examples below as a reference point.
1) O=c1[nH]c2cc(Cl)c(Cl)cc2c(=O)n1O :: 93.4
2) O=C(NCc1ccccc1)Nc1ccc2[nH]c(=O)n(O)c(=O)c2c1 :: 57.4
3) CC(=O)Nc1nnc(S(N)(=O)=O)s1 [ACETAZOLAMIDE] :: 96.8
4) O=c1[nH]c2cc(C(F)(F)F)c([N+](=O)[O-])cc2c(=O)n1O :: 53.9
5) O=C1C=CCN1c1cc2c(=O)n(O)c(=O)[nH]c2cc1Cl :: 48.5

Enquiry: Which measured viability at 48 h, 30 µM value corresponds to `O=c1[nH]c2ccc([N+](=O)[O-])cc2c(=O)n1O` ?
Return: 101

Enquiry: For the compound shown here, `O=c1[nH]c2cc(Cl)cc(Cl)c2c(=O)n1O` , give the reported viability at 48 h, 30 µM.
Return: 92.6

Enquiry: Look at this compound and give its reported viability at 48 h, 30 µM. `O=c1[nH]c2cc(Cl)c([N+](=O)[O-])cc2c(=O)n1O`
Return: 58.2

###

Measured viability at 72 h, 30 µM by item
# procedure_text: Antiproliferative activity against human HT-29 cells assessed as cell viability at 30 uM after 72 hrs under normoxic conditions by MTT assay relative to control
# Format: cell-based
# experimental_context: read-out: Activity
Report as a plain number; the unit % is understood.

Examples with their reported viability at 72 h, 30 µM follow.
1) CC(=O)Nc1nnc(S(N)(=O)=O)s1 [ACETAZOLAMIDE] :: 97.6
2) O=c1[nH]c2cc(Cl)c([N+](=O)[O-])cc2c(=O)n1O :: 36.8
3) O=c1[nH]c2cc(Cl)c(Cl)cc2c(=O)n1O :: 107
4) O=c1[nH]c2cc(C(F)(F)F)c([N+](=O)[O-])cc2c(=O)n1O :: 41.5

Enquiry: Which value of viability at 72 h, 30 µM has been reported for `O=c1[nH]c2ccc([N+](=O)[O-])cc2c(=O)n1O` in the records?
Return: 95.6

Enquiry: Can you look up the measured viability at 72 h, 30 µM of `O=C1C=CCN1c1cc2c(=O)n(O)c(=O)[nH]c2cc1Cl` for me?
Return: 36.4

Enquiry: Fill in the blank: the reported viability at 72 h, 30 µM of `O=C(NCc1ccccc1)Nc1ccc2[nH]c(=O)n(O)c(=O)c2c1` is ____.
Return: 32.4

Enquiry: Please report the recorded viability at 72 h, 30 µM for `O=c1[nH]c2cc(Cl)cc(Cl)c2c(=O)n1O` .
Return: 94.2

###

# System: HT-29
# procedure_text: Antiproliferative activity against human HT-29 cells assessed as cell viability at 300 uM after 72 hrs under hypoxic conditions by MTT assay relative to control
# Type: functional
# experimental_context: HT-29, 72 h, read-out: Activity
measured_parameter: viability at 300 µM (%)
Give the value, in units of %, as a plain number.

1) O=c1[nH]c2cc(Cl)cc(Cl)c2c(=O)n1O :: 78.9

Enquiry: Given the entry `O=c1[nH]c2cc(Cl)c([N+](=O)[O-])cc2c(=O)n1O` , report its measured viability at 300 µM.
Return: 63.5

Enquiry: Which viability at 300 µM is reported for this compound? `O=c1[nH]c2ccc([N+](=O)[O-])cc2c(=O)n1O`
Return: 87.3

Enquiry: Look at this compound and give its reported viability at 300 µM. `O=c1[nH]c2cc(C(F)(F)F)c([N+](=O)[O-])cc2c(=O)n1O`
Return: 40.3

###

# Test system: HT-29
# procedure_text: Antiproliferative activity against human HT-29 cells assessed as cell viability at 30 uM after 48 hrs under hypoxic conditions by MTT assay relative to control
# Type: functional
# experimental_context: HT-29, 48 h, read-out: Activity
measured_parameter: viability at 30 µM (%)
Quick reminder: number only, in %, skip the unit.

// below: answered compounds
1) CC(=O)Nc1nnc(S(N)(=O)=O)s1 [ACETAZOLAMIDE] :: 108
2) O=c1[nH]c2cc(C(F)(F)F)c([N+](=O)[O-])cc2c(=O)n1O :: 45.2
3) O=c1[nH]c2ccc([N+](=O)[O-])cc2c(=O)n1O :: 98.8
4) O=C1C=CCN1c1cc2c(=O)n(O)c(=O)[nH]c2cc1Cl :: 50.6
5) O=C(NCc1ccccc1)Nc1ccc2[nH]c(=O)n(O)c(=O)c2c1 :: 50.6

Enquiry: Can you share its viability at 30 µM? I mean this compound: `O=c1[nH]c2cc(Cl)c(Cl)cc2c(=O)n1O`
Return: 106

Enquiry: Suppose we examine the compound `O=c1[nH]c2cc(Cl)cc(Cl)c2c(=O)n1O` ; what viability at 30 µM value has been reported?
Return: 101

Enquiry: Param item = `O=c1[nH]c2cc(Cl)c([N+](=O)[O-])cc2c(=O)n1O` ; retrieve measured viability at 30 µM.
Return: 45.7

Where do these numbers come from? They come from ChEMBL document CHEMBL4011650.
